# kcat annotations
biological target: wild-type mAPA (Mus musculus, UniProt P16406); construct: made in house; host or cells: stably transfected CHO-K1 cells; test: Kinetic parameters of substrate hydrolysis by wild-type His-mAPA; type: biochemical; details: wild type mAPA; no Ca2+
observable: kcat (s⁻¹)

* N[C@@H](CCC(=O)O)C(=O)Nc1ccc2ccccc2c1 [HGluβNA, α-L-glutamyl-β-naphthylamide] | 13.9
* N[C@@H](CC(=O)O)C(=O)Nc1ccc2ccccc2c1 [HAspβNA, α-L-aspartate-β-naphthylamide] | 10.4
* C[C@H](N)C(=O)Nc1ccc2ccccc2c1 [HAlaβNA, α-L-alanine-β-naphthylamide] | 21.6
* NCCCC[C@H](N)C(=O)Nc1ccc2ccccc2c1 [HLysβNA, α-L-lysine-β-naphthylamide] | 16.4

---

Recorded Km, one value per entry.
Molecular target: wild-type mAPA (Mus musculus, UniProt P16406)
Construct: made in house; host or cells: stably transfected CHO-K1 cells
Sequence (P16406 1-945): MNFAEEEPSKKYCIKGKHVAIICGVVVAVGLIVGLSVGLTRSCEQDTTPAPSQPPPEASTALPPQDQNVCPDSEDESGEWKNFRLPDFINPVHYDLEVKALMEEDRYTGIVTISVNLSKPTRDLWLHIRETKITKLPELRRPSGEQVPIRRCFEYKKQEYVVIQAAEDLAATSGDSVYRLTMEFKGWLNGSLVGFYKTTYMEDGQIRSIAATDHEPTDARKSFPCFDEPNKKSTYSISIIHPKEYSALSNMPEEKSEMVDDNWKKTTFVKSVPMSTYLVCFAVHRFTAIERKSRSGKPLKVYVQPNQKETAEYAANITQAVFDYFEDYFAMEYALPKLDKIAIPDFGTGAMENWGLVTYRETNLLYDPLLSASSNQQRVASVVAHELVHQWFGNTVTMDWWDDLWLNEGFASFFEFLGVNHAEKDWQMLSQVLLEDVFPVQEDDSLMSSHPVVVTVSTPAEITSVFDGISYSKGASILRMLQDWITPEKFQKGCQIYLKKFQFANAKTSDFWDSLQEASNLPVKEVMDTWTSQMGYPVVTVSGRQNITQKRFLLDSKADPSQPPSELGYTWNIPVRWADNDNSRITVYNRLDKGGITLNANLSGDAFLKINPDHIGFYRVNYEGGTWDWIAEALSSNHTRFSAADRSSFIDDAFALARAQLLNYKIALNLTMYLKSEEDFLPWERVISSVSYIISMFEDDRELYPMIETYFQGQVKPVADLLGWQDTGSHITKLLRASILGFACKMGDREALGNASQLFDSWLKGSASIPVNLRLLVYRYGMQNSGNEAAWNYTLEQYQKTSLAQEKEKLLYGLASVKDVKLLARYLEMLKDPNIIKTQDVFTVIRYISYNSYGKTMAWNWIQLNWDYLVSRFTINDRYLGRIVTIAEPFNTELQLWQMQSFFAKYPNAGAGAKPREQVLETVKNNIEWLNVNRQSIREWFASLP
Test: Kinetic parameters of substrate hydrolysis by wild-type His-mAPA
Type: biochemical
Settings: wild type mAPA; 4 mM Ca2+
observable: Km (µM)

• C[C@H](N)C(=O)Nc1ccc2ccccc2c1 [HAlaβNA, α-L-alanine-β-naphthylamide] = 321
• N[C@@H](CC(=O)O)C(=O)Nc1ccc2ccccc2c1 [HAspβNA, α-L-aspartate-β-naphthylamide] = 54
• NCCCC[C@H](N)C(=O)Nc1ccc2ccccc2c1 [HLysβNA, α-L-lysine-β-naphthylamide] = 244
• N[C@@H](CCC(=O)O)C(=O)Nc1ccc2ccccc2c1 [HGluβNA, α-L-glutamyl-β-naphthylamide] = 39.1

---

Reported Km values are given for each entry in this list.
target: R878A mutated mAPA (Mus musculus, UniProt P16406, R878A); construct: made in house; host or cells: stably transfected CHO-K1 cells; test: Kinetic parameters of substrate hydrolysis by R878A His-mAPA; type: biochemical; details: no Ca2+
observable: Km (µM)

• N[C@@H](CCC(=O)O)C(=O)Nc1ccc2ccccc2c1 [HGluβNA, α-L-glutamyl-β-naphthylamide] = 1500
• N[C@@H](CC(=O)O)C(=O)Nc1ccc2ccccc2c1 [HAspβNA, α-L-aspartate-β-naphthylamide] = 1220
• NCCCC[C@H](N)C(=O)Nc1ccc2ccccc2c1 [HLysβNA, α-L-lysine-β-naphthylamide] = 394
• C[C@H](N)C(=O)Nc1ccc2ccccc2c1 [HAlaβNA, α-L-alanine-β-naphthylamide] = 651

---

target: R878A mutated mAPA (Mus musculus, UniProt P16406, R878A); construct: made in house; host or cells: stably transfected CHO-K1 cells; assay: Inhibition of GluNA hydrolysis by purified recombinant R878A His-mAPA; type: biochemical; conditions: R878A mAPA; absence of calcium; 0.5 mM GluNA; read-out: Ki
pKi: −log10 of the molar value.
observable: pKi

* N[C@H](CS)CCC(=O)O | 5.76
* CSCC[C@H](N)CS | 6.32
* NCCCC[C@H](N)CS | 6.93

---

Reported values of kcat for individual entries
Target: R878K mutated mAPA (Mus musculus, UniProt P16406, R878K)
Construct: made in house; host or cells: stably transfected CHO-K1 cells
Sequence (P16406 1-945 R878K): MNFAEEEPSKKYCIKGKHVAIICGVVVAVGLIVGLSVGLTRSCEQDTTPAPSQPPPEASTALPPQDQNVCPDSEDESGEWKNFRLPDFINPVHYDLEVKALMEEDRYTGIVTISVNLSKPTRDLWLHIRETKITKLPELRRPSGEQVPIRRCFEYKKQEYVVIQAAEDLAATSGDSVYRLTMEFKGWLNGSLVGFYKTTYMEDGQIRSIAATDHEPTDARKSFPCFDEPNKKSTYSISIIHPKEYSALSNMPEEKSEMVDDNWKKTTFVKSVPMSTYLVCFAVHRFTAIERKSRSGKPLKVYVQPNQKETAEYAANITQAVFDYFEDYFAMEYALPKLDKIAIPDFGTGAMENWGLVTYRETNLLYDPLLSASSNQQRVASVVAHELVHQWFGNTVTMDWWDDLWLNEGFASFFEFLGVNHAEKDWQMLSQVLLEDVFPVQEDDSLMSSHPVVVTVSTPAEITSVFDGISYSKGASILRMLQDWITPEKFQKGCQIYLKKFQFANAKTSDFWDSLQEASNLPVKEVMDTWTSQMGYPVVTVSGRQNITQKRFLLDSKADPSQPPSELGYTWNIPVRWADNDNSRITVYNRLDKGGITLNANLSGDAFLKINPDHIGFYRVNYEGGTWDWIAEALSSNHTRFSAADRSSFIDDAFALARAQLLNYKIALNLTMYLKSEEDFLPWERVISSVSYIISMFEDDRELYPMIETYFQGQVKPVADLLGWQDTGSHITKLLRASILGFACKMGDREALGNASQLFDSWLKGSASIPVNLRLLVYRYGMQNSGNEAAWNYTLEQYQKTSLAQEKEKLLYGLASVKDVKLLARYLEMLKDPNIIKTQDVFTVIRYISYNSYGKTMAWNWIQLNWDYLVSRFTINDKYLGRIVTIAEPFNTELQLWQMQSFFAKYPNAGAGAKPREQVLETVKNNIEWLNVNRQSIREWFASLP
Experiment: Kinetic parameters of substrate hydrolysis by R878K His-mAPA
Assay type: biochemical
Settings: 4 mM Ca2+
observable: kcat

• N[C@@H](CCC(=O)O)C(=O)Nc1ccc2ccccc2c1 [HGluβNA, α-L-glutamyl-β-naphthylamide] = 135 ± 1.3 s⁻¹
• C[C@H](N)C(=O)Nc1ccc2ccccc2c1 [HAlaβNA, α-L-alanine-β-naphthylamide] = 26.2 ± 1.5 s⁻¹
• N[C@@H](CC(=O)O)C(=O)Nc1ccc2ccccc2c1 [HAspβNA, α-L-aspartate-β-naphthylamide] = 42.2 ± 1.1 s⁻¹
• NCCCC[C@H](N)C(=O)Nc1ccc2ccccc2c1 [HLysβNA, α-L-lysine-β-naphthylamide] = 24.4 ± 0.5^n.s s-1

---

Listed below: Km values for each entry.
target: wild-type mAPA (Mus musculus, UniProt P16406); construct: made in house; host or cells: stably transfected CHO-K1 cells; experiment: Kinetic parameters of substrate hydrolysis by wild-type His-mAPA; assay type: biochemical; details: wild type mAPA; no Ca2+
observable: Km

* N[C@@H](CC(=O)O)C(=O)Nc1ccc2ccccc2c1 [HAspβNA, α-L-aspartate-β-naphthylamide] | 149 µM
* NCCCC[C@H](N)C(=O)Nc1ccc2ccccc2c1 [HLysβNA, α-L-lysine-β-naphthylamide] | 304 µM
* C[C@H](N)C(=O)Nc1ccc2ccccc2c1 [HAlaβNA, α-L-alanine-β-naphthylamide] | 394 µM
* N[C@@H](CCC(=O)O)C(=O)Nc1ccc2ccccc2c1 [HGluβNA, α-L-glutamyl-β-naphthylamide] | 165 µM

---

Biological target: R878A mutated mAPA (Mus musculus, UniProt P16406, R878A)
Construct: made in house; host or cells: stably transfected CHO-K1 cells
Sequence (P16406 1-945 R878A): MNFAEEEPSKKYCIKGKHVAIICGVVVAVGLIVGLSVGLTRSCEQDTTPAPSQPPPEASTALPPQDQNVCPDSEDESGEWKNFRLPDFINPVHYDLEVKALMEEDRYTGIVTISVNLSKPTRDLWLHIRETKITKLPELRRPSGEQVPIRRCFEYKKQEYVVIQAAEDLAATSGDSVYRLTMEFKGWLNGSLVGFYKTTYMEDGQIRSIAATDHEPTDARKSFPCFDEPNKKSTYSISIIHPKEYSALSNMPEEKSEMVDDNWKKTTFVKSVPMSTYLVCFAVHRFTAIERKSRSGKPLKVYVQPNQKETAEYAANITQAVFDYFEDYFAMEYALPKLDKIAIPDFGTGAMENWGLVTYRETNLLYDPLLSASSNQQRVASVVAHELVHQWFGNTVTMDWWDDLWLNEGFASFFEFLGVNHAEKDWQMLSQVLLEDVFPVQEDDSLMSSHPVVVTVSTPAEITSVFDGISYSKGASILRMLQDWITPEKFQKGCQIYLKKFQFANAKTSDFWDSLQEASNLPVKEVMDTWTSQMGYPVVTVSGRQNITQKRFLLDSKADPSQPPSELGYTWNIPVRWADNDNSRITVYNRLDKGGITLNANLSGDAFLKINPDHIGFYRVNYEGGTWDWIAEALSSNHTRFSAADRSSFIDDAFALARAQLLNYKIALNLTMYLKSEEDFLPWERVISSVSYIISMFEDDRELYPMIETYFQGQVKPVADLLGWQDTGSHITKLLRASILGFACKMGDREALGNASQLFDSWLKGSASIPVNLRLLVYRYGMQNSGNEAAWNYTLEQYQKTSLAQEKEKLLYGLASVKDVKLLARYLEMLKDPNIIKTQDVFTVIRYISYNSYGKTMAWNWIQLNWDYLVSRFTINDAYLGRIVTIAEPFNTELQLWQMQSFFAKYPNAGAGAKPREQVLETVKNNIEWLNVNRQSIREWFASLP
Test: Inhibition of GluNA hydrolysis by purified recombinant R878A His-mAPA
Assay type: biochemical
Conditions: R878A mAPA; 4 mM Ca2+; 0.5 mM GluNA; read-out: Ki
pKi: −log10 of the molar value.
Listed below: pKi values for each entry.
observable: pKi

• N[C@H](CS)CCC(=O)O [GluSH, (4S)-4-amino-5-sulfanylpentanoic acid] = 6.01
• N[C@H](CS)CCS(=O)(=O)O [EC33] = 5.70
• NCCCC[C@H](N)CS [LysSH, (2S)-2,6-diaminohexane-1-thiol] = 5.12
• CSCC[C@H](N)CS [MetSH] = 5.49

Data origin: paper PMC5587309
